TEST_TARGET: recombinant soluble homotrimeric HA of A/duck/Yangzhou/02/05 (H8N4) (Influenza A virus A/duck/Yangzhou/02/2005(H8N4))
ASSAY_SUMMARY: trimeric HA microarray, transfection supernatant set 3
RECORDED_CONDITIONS: remark: other sources report otherwise
Kindly state Trimeric HA Binding: RLU for each of the entries shown.
Numbers only, in RLU.

- TCN-531 (5091_H13) (antibody, V domains shown) VH: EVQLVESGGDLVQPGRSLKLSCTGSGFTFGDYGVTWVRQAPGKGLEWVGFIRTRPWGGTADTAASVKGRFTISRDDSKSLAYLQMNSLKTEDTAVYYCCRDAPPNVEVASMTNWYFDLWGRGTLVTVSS VL: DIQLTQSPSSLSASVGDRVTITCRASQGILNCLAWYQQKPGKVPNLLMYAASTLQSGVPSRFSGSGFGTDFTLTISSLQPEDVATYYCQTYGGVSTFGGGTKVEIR: 3220

With those in mind, consider the next binder.
Quickly give me recorded Trimeric HA Binding: RLU for TCN-532 (5262_H18) (antibody, V domains shown) VH: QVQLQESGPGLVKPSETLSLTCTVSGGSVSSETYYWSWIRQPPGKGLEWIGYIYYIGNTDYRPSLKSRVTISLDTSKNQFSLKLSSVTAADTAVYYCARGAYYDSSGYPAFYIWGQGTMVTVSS VL: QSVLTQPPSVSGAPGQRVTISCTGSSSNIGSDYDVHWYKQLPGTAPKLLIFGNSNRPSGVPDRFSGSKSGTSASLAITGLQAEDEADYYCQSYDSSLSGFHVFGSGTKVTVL
57
